assay: clinical trials, oral administration to man: plasma pharmacokinetics; type: in vivo; details: human, oral compositions as described in Table 1, administered orally to man, read-out: time to maximum plasma concentration (TMAX)
Attribute Measured: Tmax

Query: So what does the record say about Tmax for CC(=O)c1ccc2c(c1)[C@H](NC(=O)c1ccc(F)c(Cl)c1)[C@H](O)C(C)(C)O2 [tonabersat] ?
Result: 1 to 3 h
